Measured Number of Eyes Observed, ± by item
- System: cataracts in rats
- Run description: Prevention or retardation of cataracts in galactose-fed rats
- Assay type: in vivo, rat
- Test settings: Study Day 16; 30% galactose diet; A,C,E 0.0025%, B,D 0.01%
Metric name: Number of Eyes Observed, ± (eyes)

INSERT INTO assay_data (compound, display_unit, numeric_result) VALUES
  ('O=C1NC(=O)C2(CCOc3ccc(F)cc32)N1 (stereo not shown)', 'eyes', 4),
  ('CSc1ccc2c(c1)C1(CCO2)NC(=O)NC1=O (stereo not shown) [B]', 'eyes', 4),
  ('CSc1ccc2c(c1)C1(CCO2)NC(=O)NC1=O (stereo not shown) [A]', 'eyes', 0),
  ('C[S+]([O-])c1ccc2c(c1)C1(CCO2)NC(=O)NC1=O (stereo not shown)', 'eyes', 2);
